Tested on: Zea mays
Protocol notes: Phytotoxicity against Zea mays (maize) plant at two to four-leaf growth stage at 500 g/ha measured after 13 days under green house conditions
Assay type: organism-based
Conditions used: in vivo, 312 h
Cut-off 20% on Activity, inclusive. At or above means true (1); below means false (0).

// known answers, use as guide
| Molecule | Group label |
| --- | --- |
| COC(=O)C(C)Oc1ccc(Oc2nnc3cc(Cl)ccc3n2)cc1 (racemic) | false (0) |
| COC(=O)C(C)Oc1ccc(Oc2ccc(Cl)cc2Cl)cc1 (racemic) [DICLOFOP-METHYL] | true (1) |
| COC(=O)C(C)Oc1ccc(Oc2ncc3cc(Cl)ccc3n2)cc1 (racemic) | false (0) |
| COC(=O)C(C)Oc1ccc(N(C)c2ccc3cc(Cl)ccc3n2)cc1 (racemic) | true (1) |

Enquiry: Reported Activity reaches at least 20% for CCOC(=O)C(C)Oc1ccc(Oc2cc3ccc(Cl)cc3cn2)cc1 (racemic) ?
Return: true (1)

###

Test system: Avena fatua
Protocol notes: Post-emergent herbicidal activity against Avena fatua at <2 g/ha measured after 13 days under green house conditions
Type: functional, organism-based
Active and inactive are the calls of the source. The calls are words filed in the database; no cut-off is given here.
Measure name: Activity

// solved cases for Activity follow
| Molecule | Activity |
| --- | --- |
| COC(=O)C(C)Oc1ccc(N(C)c2ccc3cc(Cl)ccc3n2)cc1 (racemic) | inactive |
| COC(=O)C(C)Oc1ccc(N(C)c2ncc(Cl)cn2)cc1 (racemic) | inactive |
| COC(=O)C(C)Oc1ccc(N(C)c2nnc3cc(Cl)ccc3n2)cc1 (racemic) | inactive |
| CCOC(=O)C(C)Oc1ccc(Oc2nc3ccc(Cl)cc3o2)cc1 (racemic) | inactive |
| CCOC(=O)C(C)Oc1ccc(Oc2cnc3cc(Cl)ccc3n2)cc1 (racemic) | inactive |
| COC(=O)C(C)Oc1ccc(Oc2ccc(Cl)cc2Cl)cc1 (racemic) | inactive |

Enquiry: Would you mind telling me what Activity value was observed for COC(=O)C(C)Oc1ccc(N(C)c2ccc(Cl)cc2Cl)cc1 (racemic) ?
Return: inactive

Enquiry: Would you mind telling me what Activity value was observed for CCOC(=O)C(C)Oc1ccc(Oc2cc3ccc(Cl)cc3cn2)cc1 (racemic) ?
Return: inactive

Enquiry: Would you mind telling me what Activity value was observed for CCOC(=O)C(C)Oc1ccc(N(C)c2cnc3cc(Cl)ccc3n2)cc1 (racemic) ?
Return: inactive

Enquiry: Would you mind telling me what Activity value was observed for COC(=O)C(C)Oc1ccc(N(C)c2ccc(C(F)(F)F)cn2)cc1 (racemic) ?
Return: inactive

Enquiry: Would you mind telling me what Activity value was observed for COC(=O)C(C)Oc1ccc(Oc2ncc3cc(Cl)ccc3n2)cc1 (racemic) ?
Return: inactive

Enquiry: Would you mind telling me what Activity value was observed for CCCCOC(=O)C(C)Oc1ccc(Oc2ccc(C(F)(F)F)cn2)cc1 (racemic) ?
Return: inactive

Enquiry: Would you mind telling me what Activity value was observed for CCOC(=O)C(C)Oc1ccc(N(C)c2ncc3cc(Cl)ccc3n2)cc1 (racemic) ?
Return: inactive

###

Test system: Zea mays
Protocol notes: Phytotoxicity against Zea mays (maize) plant at two to four-leaf growth stage at 50 g/ha measured after 13 days under green house conditions
Type: organism-based
Conditions used: in vivo, 312 h
Measure name: Activity (%)
A number alone suffices; assume %.

Enquiry: Recall the recorded Activity for CCOC(=O)C(C)Oc1ccc(Oc2nc3ccc(Cl)cc3o2)cc1 (racemic) [FENOXAPROP-ETHYL] with Zea mays and state it.
Return: 85

Enquiry: Recall the recorded Activity for CCOC(=O)C(C)Oc1ccc(N(C)c2ncc3cc(Cl)ccc3n2)cc1 (racemic) with Zea mays and state it.
Return: 65
